- Test system: IGROV1 ovarian
- protocolSummary: NCI tumour cell line growth inhibition, 48 h
reportedProperty: TGI

Known results for compounds:
>>> print(df.to_string())
                                   compound  endpointresult
0                    C1=Cc2ccccc2Nc2ccccc21        > 100 µM
1                       C#CCOC(=O)c1ccccc1O        > 100 µM
2  COc1ccc(-c2[nH]c3ccccc3c2C=C(C#N)C#N)cc1        > 100 µM
3                CNC(=O)CN(CC(=O)NC)C(=O)NC        > 100 µM

Exercise: Form field: reported TGI of CC(C)(C)OC(=O)N(O)[C@@H]1C=C[C@H](n2cnc3c(N)ncnc32)C1
Solution: > 100 µM

Exercise: Form field: reported TGI of COc1ccc2c(c1)C(=O)/C(=C/c1cccc(OCC(=O)Nc3nc4c(s3)CCCC4)c1)O2
Solution: 0.054 µM

Exercise: Form field: reported TGI of O=C(O)CNC(=O)CO/N=C1/C(c2c(O)[nH]c3ccccc23)=Nc2ccccc21
Solution: > 100 µM

Exercise: Form field: reported TGI of CCOc1cccc(/C=N/NC(=O)c2ccc(Nc3ccnc(C(F)(F)F)c3)cc2)c1O
Solution: > 23.9 µM

The reported numbers originate from PubChem BioAssay (NCI).
